target: KOR (Cavia porcellus, UniProt P41144); construct: from tissue; experiment: Opioid receptor binding, KOR, guinea pig brain membranes; details: in vitro binding assay, guinea pig brain membranes; read-out: Binding Ki (nM) KOR
Sequence (P41144 whole entry): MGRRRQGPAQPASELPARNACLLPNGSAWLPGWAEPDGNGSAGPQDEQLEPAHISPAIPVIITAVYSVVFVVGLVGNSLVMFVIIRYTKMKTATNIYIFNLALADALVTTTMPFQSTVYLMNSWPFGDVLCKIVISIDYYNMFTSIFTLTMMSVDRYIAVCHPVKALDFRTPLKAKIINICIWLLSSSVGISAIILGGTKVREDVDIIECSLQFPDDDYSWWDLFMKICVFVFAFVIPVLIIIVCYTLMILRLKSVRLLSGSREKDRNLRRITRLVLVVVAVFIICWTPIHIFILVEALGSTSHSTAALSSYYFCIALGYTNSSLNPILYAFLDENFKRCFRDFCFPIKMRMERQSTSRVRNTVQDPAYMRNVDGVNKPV
So I've got a bunch of compounds here, and I need their Ki values.
Answers are plain numbers, in nM.

# count of solved cases: 5
CO[C@@]12CC[C@@H](N[C@@H](CCCCN)C(=O)OC(C)(C)C)[C@@H]3Oc4c(O)ccc5c4[C@@]31CCN(C)[C@@H]2C5    21.4
CO[C@@]12CC[C@H](N[C@@H](C(=O)OC(C)(C)C)C(C)C)[C@@H]3Oc4c(O)ccc5c4[C@@]31CCN(C)[C@@H]2C5    22.7
CO[C@@]12CC[C@@H](N[C@@H](C(=O)OC(C)(C)C)C(C)C)[C@@H]3Oc4c(O)ccc5c4[C@@]31CCN(C)[C@@H]2C5    206
CCO[C@@]12CC[C@@H](NCC(=O)OC(C)(C)C)[C@@H]3Oc4c(O)ccc5c4[C@@]31CCN(C)[C@@H]2C5    34.1
CO[C@@]12CC[C@@H](N[C@@H](CCC(=O)OC(C)(C)C)C(=O)OC(C)(C)C)[C@@H]3Oc4c(O)ccc5c4[C@@]31CCN(C)[C@@H]2C5    81.5

Next item in the queue.
IN: # lookup: Ki of CO[C@@]12CC[C@@H](N[C@@H](CCCCN)C(=O)O)[C@@H]3Oc4c(O)ccc5c4[C@@]31CCN(C)[C@@H]2C5
OUT: 33.7

###

Please provide measured Ki for the entries that follow.
target: KOR (Cavia porcellus); construct: from tissue; test: Opioid receptor binding, KOR, guinea pig brain membranes; conditions: in vitro binding assay, guinea pig brain membranes; read-out: Binding Ki (nM) KOR
Give bare numbers, in nM.

Some solved entries appear below for comparison.
CCCCCCCCOC(=O)CN[C@@H]1CC[C@@]2(OC)[C@H]3Cc4ccc(O)c5c4[C@@]2(CCN3C)[C@H]1O5 [HS731-nOc ester]    3.87
CO[C@@]12CC[C@@H](N[C@@H](CO)C(=O)OC(C)(C)C)[C@@H]3Oc4c(O)ccc5c4[C@@]31CCN(C)[C@@H]2C5 [37-t-Bu ester]    83.3

Moving on to the next compound.
IN: Item CO[C@@]12CC[C@@H](NCC(=O)OCc3ccccc3)[C@@H]3Oc4c(O)ccc5c4[C@@]31CCN(C)[C@@H]2C5 [HS731-benzyl ester] has what recorded Ki?
OUT: 2.86

###

For each of the compounds below, state its pKi.
target: KOR (Cavia porcellus); construct: from tissue; test: Opioid receptor binding, KOR, guinea pig brain membranes; conditions: Binding Ki KOR, Table 2-6, guinea pig brain membranes
Numbers only, as −log10 of the molar value.

The following compounds have reported results that may help.
CO[C@@]12CC[C@@H](N[C@@H](CC(C)C)C(=O)OC(C)(C)C)[C@@H]3Oc4c(O)ccc5c4[C@@]31CCN(CC1CC1)[C@@H]2C5 [77-tBu ester]    9.17
CO[C@@]12CC[C@@H](NCC(=O)O)[C@@H]3Oc4c(O)ccc5c4[C@@]31CCN(CC1CC1)[C@@H]2C5 [Compound 62]    8.03
CO[C@@]12CC[C@@H](N[C@@H](CCC(=O)O)C(=O)O)[C@@H]3Oc4c(O)ccc5c4[C@@]31CCN(CC1CC1)[C@@H]2C5 [Compound 75]    7.89

Report pKi for every entry below.
1. CO[C@@]12CC[C@@H](NCCCC(=O)OC(C)(C)C)[C@@H]3Oc4c(O)ccc5c4[C@@]31CCN(CC1CC1)[C@@H]2C5 [66-tBu ester]
2. CO[C@@]12CC[C@H](N[C@@H](Cc3ccccc3)C(=O)O)[C@@H]3Oc4c(O)ccc5c4[C@@]31CCN(CC1CC1)[C@@H]2C5 [Compound 57]
3. CC(C)(C)OC(=O)[C@H](Cc1ccccc1)N[C@H]1CC[C@@]2(O)[C@H]3Cc4ccc(O)c5c4[C@@]2(CCN3CC2CC2)[C@H]1O5 [59-tBu ester]
4. COC12CCC(NC(C(=O)O)C(C)C)C3Oc4c(O)ccc5c4C31CCN(CC1CC1)C2C5 (single isomer, unassigned) [Compound 71]
5. CO[C@@]12CC[C@@H](N[C@@H](C)C(=O)O)[C@@H]3Oc4c(O)ccc5c4[C@@]31CCN(CC1CC1)[C@@H]2C5 [Compound 72]
6. CO[C@@]12CC[C@@H](N[C@@H](CC(=O)O)C(=O)O)[C@@H]3Oc4c(O)ccc5c4[C@@]31CCN(CC1CC1)[C@@H]2C5 [Compound 73]
7. CCO[C@@]12CC[C@@H](N[C@@H](Cc3ccccc3)C(=O)O)[C@@H]3Oc4c(O)ccc5c4[C@@]31CCN(CC1CC1)[C@@H]2C5 [Compound 56]

OUT:
8.55
8.38
8.30
7.64
7.94
7.93
7.94

Dear reader, for each entry below, please note its pKi.
1. CO[C@@]12CCC(=O)[C@@H]3Oc4c(O)ccc5c4[C@@]31CCN(CC1CC1)[C@@H]2C5 [Compound 14-OMe-NTX, 14-O-Methylnaltrexone, reference compound]
2. CO[C@@]12CC[C@H](NCC(=O)OC(C)(C)C)[C@@H]3Oc4c(O)ccc5c4[C@@]31CCN(CC1CC1)[C@@H]2C5 [61-tBu ester]

OUT:
1: 8.93; 2: 8.85

###

Give pKi for every item shown.
target: DOR (Rattus norvegicus, UniProt P33533); construct: from tissue; experiment: Opioid receptor binding, DOR, rat brain membranes; conditions: Binding Ki DOR, Table 1-4, rat brain membranes
Sequence (P33533 whole entry): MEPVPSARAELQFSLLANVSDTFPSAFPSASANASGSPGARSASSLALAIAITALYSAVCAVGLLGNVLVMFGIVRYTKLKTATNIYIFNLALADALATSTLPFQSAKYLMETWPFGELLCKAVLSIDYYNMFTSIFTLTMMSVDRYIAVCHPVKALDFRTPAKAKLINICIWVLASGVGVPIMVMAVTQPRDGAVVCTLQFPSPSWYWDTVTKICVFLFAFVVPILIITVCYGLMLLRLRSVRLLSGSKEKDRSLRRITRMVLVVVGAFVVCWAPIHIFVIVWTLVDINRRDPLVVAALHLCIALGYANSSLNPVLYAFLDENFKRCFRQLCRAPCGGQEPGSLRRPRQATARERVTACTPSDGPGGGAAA
Give bare numbers, as −log10 of the molar value.

COC12CCC(NC(C(=O)O)C(C)C)C3Oc4c(O)ccc5c4C31CCN(C)C2C5 (single isomer, unassigned) [Compound 30]    8.71
CC[C@H](C)[C@H](N[C@H]1CC[C@@]2(OC)[C@H]3Cc4ccc(O)c5c4[C@@]2(CCN3C)[C@H]1O5)C(=O)O    8.49
CC[C@H](C)[C@H](N[C@@H]1CC[C@@]2(OC)[C@H]3Cc4ccc(O)c5c4[C@@]2(CCN3C)[C@H]1O5)C(=O)O    8.89

Give pKi for each of the items listed below.
1. CCO[C@@]12CC[C@@H](NCC(=O)O)[C@@H]3Oc4c(O)ccc5c4[C@@]31CCN(C)[C@@H]2C5
2. CO[C@@]12CC[C@H](N[C@@H](CCCCN)C(=O)O)[C@@H]3Oc4c(O)ccc5c4[C@@]31CCN(C)[C@@H]2C5
3. COC12CCC(NC(C)C(=O)O)C3Oc4c(O)ccc5c4C31CCN(C)C2C5 (single isomer, unassigned) [Compound 2]
4. C[C@H](N[C@@H]1CC[C@@]2(O)[C@H]3Cc4ccc(O)c5c4[C@@]2(CCN3C)[C@H]1O5)C(=O)O

OUT:
1. 8.27
2. 8.90
3. 8.11
4. 7.10

###

target: MOR (Rattus norvegicus); construct: from tissue; assay: Opioid receptor binding, MOR, rat brain membranes; conditions: Binding Ki MOR, Table 2-6, rat brain membranes
Sequence (P33535 whole entry): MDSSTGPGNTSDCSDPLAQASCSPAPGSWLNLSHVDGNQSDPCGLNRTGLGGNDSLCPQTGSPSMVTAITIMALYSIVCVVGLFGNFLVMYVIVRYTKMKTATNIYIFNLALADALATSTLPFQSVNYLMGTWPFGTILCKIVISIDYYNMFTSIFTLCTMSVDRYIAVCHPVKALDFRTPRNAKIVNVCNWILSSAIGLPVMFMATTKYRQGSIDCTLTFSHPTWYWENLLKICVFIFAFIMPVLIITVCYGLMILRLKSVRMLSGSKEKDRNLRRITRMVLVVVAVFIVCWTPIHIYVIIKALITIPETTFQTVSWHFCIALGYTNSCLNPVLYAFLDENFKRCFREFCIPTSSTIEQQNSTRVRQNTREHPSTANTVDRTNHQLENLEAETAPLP
quantity kind: Ki (nM)
Numbers only, in nM.

CO[C@@]12CC[C@H](N[C@@H](Cc3ccccc3)C(=O)O)[C@@H]3Oc4c(O)ccc5c4[C@@]31CCN(CC1CC1)[C@@H]2C5    0.51

Dear colleague, could you send me Ki for each of the items below? Thanks.
1. O=C(O)C(Cc1ccccc1)NC1CCC2(O)C3Cc4ccc(O)c5c4C2(CCN3CC2CC2)C1O5 (single isomer, unassigned) [Compound 59]
2. CC[C@H](C)[C@H](N[C@@H]1CC[C@@]2(OC)[C@H]3Cc4ccc(O)c5c4[C@@]2(CCN3CC2CC2)[C@H]1O5)C(=O)O

OUT:
1. 1.41
2. 1.62

###

experiment: pH-metric determination of pKa, logP and logD in octanol/water (PCA200/Cheqsol); assay type: physicochemical; conditions: […] KCl solution (aqueous titration); 25° C., 0.15M KCl
quantity kind: pKa

IN: Requested read-out: pKa. Entry: CCO.CO[C@@]12CC[C@@H](NCC(=O)O)[C@@H]3Oc4c(O)ccc5c4[C@@]31CCN(C)[C@@H]2C5.Cl.Cl.O [HS731]
OUT: 2.4

###

molecular target: KOR (Cavia porcellus, UniProt P41144); construct: from tissue; test: Opioid receptor binding, KOR, guinea pig brain membranes; conditions: Binding Ki KOR, Table 2-6, guinea pig brain membranes
quantity kind: pKi
Answers are plain numbers, as −log10 of the molar value.

See these solved cases before continuing.
CO[C@@]12CC[C@H](NCC(=O)O)[C@@H]3Oc4c(O)ccc5c4[C@@]31CCN(CC1CC1)[C@@H]2C5 [Compound 61]    8.33
CO[C@@]12CC[C@H](NCCCC(=O)O)[C@@H]3Oc4c(O)ccc5c4[C@@]31CCN(CC1CC1)[C@@H]2C5 [Compound 65]    8.27
CCO[C@@]12CC[C@H](N[C@@H](Cc3ccccc3)C(=O)OC(C)(C)C)[C@@H]3Oc4c(O)ccc5c4[C@@]31CCN(CC1CC1)[C@@H]2C5 [55-tBu ester]    8.39
CO[C@@]12CC[C@H](N[C@@H](CC(C)C)C(=O)O)[C@@H]3Oc4c(O)ccc5c4[C@@]31CCN(CC1CC1)[C@@H]2C5 [Compound 76]    8.10
CO[C@@]12CC[C@@H](N[C@H](C(=O)OC(C)(C)C)C(C)C)[C@@H]3Oc4c(O)ccc5c4[C@@]31CCN(CC1CC1)[C@@H]2C5 [69-tBu ester]    8.36

Provide the reported pKi of each entry below, same order.
1. CCO[C@@]12CC[C@H](N[C@@H](Cc3ccccc3)C(=O)O)[C@@H]3Oc4c(O)ccc5c4[C@@]31CCN(CC1CC1)[C@@H]2C5 [Compound 55]
2. CO[C@@]12CC[C@@H](NCCC(=O)OC(C)(C)C)[C@@H]3Oc4c(O)ccc5c4[C@@]31CCN(CC1CC1)[C@@H]2C5 [64-tBu ester]
3. COC12CCC(NC(C(=O)O)C(C)C)C3Oc4c(O)ccc5c4C31CCN(CC1CC1)C2C5 (single isomer, unassigned) [Compound 68]
4. COC12CCC(NC(C(=O)O)C(C)C)C3Oc4c(O)ccc5c4C31CCN(CC1CC1)C2C5 (single isomer, unassigned) [Compound 70]
5. COC12CCC(NC(CCC(=O)O)C(=O)O)C3Oc4c(O)ccc5c4C31CCN(CC1CC1)C2C5 (stereo not shown) [Compound 74]

OUT:
1: 8.59; 2: 8.67; 3: 8.48; 4: 8.45; 5: 8.18

# batch: return pKi for each of the 3 molecules below
1. CO[C@@]12CC[C@H](N[C@@H](Cc3ccccc3)C(=O)OC(C)(C)C)[C@@H]3Oc4c(O)ccc5c4[C@@]31CCN(CC1CC1)[C@@H]2C5 [57-tBu ester]
2. CO[C@@]12CC[C@@H](N[C@@H](C(=O)OC(C)(C)C)C(C)C)[C@@H]3Oc4c(O)ccc5c4[C@@]31CCN(CC1CC1)[C@@H]2C5 [71-tBu ester]
3. O=C(O)C(Cc1ccccc1)NC1CCC2(O)C3Cc4ccc(O)c5c4C2(CCN3CC2CC2)C1O5 (single isomer, unassigned) [Compound 59]

OUT:
[8.75, 7.82, 8.58]
